System name: T1, recombinant human DLL4 (Cat# 1506-D4/CF, R&D Systems) (human, UniProt Q9NR61 27-529)
T1 construct: Bought protein; also called hDLL4; rHuman DLL4
Measurement description: SPR (ProteOn), hDLL4 amine-coupled on chip
Reported property: kon (M⁻¹ s⁻¹)
Give the quantity in M⁻¹ s⁻¹, number only.

Examples with their reported kon follow.
Lookup: Dear colleague, I am looking for the recorded kon of the following binder: Fab VH5-51_IGHD5-18*01>3_IGHJ4*01 G100K/G104T S28R & V3-4_IGLJ1*01 (Fab, V domains shown, Fab made in E. coli: VH on CH1 with His6 and Flag tags (Plasmid A), VL on lambda CL (Plasmid E); also called H: KT S28R & L: wt) VH: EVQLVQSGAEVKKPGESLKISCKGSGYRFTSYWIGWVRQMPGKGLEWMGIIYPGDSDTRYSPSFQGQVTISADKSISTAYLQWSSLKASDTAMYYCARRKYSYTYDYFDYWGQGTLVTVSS VL: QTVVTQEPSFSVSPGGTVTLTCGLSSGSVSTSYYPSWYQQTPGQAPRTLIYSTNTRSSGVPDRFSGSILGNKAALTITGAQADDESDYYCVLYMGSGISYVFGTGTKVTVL
Found: 740000

Lookup: Dear colleague, I am looking for the recorded kon of the following binder: Fab VH5-51_IGHD5-18*01>3_IGHJ4*01 G100K/G104T G24T/S28R/G35V & V3-4_IGLJ1*01 V91L/S96P S52G (Fab, V domains shown, Fab made in E. coli: VH on CH1 with His6 and Flag tags (Plasmid A), VL on lambda CL (Plasmid E); also called H: KT TRV & L: LP S52G) VH: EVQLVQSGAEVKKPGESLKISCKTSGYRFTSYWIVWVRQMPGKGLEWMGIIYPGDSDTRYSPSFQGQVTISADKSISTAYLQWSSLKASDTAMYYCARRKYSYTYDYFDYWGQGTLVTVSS VL: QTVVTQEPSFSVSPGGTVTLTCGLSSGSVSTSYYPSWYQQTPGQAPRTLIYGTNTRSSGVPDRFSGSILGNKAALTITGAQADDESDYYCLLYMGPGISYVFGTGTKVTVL
Found: 2.96e+06

Here is another binder to look at.
Lookup: Dear colleague, I am looking for the recorded kon of the following binder: Fab VH5-51_IGHD5-18*01>3_IGHJ4*01 G100K/G104T G24T/S28R/G35V & V3-4_IGLJ1*01 (Fab, V domains shown, Fab made in E. coli: VH on CH1 with His6 and Flag tags (Plasmid A), VL on lambda CL (Plasmid E); also called H: KT TRV & L: wt) VH: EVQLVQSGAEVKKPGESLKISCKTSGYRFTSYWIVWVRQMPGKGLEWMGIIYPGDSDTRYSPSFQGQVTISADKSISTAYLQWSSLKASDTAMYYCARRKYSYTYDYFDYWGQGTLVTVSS VL: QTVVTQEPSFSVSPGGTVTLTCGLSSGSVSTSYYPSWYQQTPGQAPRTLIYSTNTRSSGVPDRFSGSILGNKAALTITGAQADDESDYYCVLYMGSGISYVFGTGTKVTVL
Found: 2.09e+06
